TARGET_DESC: CYP1A1 (Homo sapiens)
Sequence (P04798 whole entry): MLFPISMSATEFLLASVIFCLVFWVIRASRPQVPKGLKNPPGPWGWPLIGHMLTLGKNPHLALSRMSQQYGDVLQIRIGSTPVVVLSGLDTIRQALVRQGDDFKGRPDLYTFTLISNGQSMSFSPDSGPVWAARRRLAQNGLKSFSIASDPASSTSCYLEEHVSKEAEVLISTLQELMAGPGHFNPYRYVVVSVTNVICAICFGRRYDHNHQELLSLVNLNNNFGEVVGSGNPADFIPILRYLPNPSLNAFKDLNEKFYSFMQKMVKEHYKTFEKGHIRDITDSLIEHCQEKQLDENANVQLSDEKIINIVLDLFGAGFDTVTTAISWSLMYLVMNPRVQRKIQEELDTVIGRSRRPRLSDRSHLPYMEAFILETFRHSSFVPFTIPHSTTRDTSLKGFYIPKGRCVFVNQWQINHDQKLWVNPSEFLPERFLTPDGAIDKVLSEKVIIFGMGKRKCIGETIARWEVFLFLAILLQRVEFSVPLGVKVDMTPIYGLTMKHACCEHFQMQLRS
MEASURED_METRIC: IC50 (µM)

* CCOc1ccc(NC(C)=O)cc1 | 21

---

TARGET_DESC: CYP2C9 (Homo sapiens)
Sequence (P11712 whole entry): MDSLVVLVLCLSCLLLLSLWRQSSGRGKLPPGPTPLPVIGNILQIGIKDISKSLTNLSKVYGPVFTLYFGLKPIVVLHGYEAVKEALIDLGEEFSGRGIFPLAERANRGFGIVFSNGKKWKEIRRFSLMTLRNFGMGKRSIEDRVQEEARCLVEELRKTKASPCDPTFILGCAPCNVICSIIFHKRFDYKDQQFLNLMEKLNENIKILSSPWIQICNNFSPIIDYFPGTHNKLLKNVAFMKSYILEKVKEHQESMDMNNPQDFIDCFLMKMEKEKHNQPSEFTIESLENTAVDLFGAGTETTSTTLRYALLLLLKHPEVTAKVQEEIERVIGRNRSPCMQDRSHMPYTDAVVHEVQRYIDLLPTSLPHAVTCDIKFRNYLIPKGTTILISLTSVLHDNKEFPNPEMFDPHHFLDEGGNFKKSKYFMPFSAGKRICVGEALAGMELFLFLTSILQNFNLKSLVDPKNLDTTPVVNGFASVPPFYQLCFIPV
PROTOCOL_TEXT: Two-step CYP450/luciferase reaction, luciferin derivative evaluation as substrate
RUN_PARAMETERS: CYP450 incubation 60 minutes at 37° C., then luciferase
MEASURED_METRIC: Light output over controls with CYP2C9

- O=C(O)[C@H]1CSC(c2nc3ccc(OCCCl)cc3s2)=N1: increased significantly
- O=C(O)[C@H]1CSC(c2nc3ccc(OCc4ccccc4)cc3s2)=N1: increased significantly
- CCOc1ccc2nc(C3=N[C@@H](C(=O)O)CS3)sc2c1: increased significantly
